target: CfEcR-DEF mutant L234I (Choristoneura fumiferana, UniProt O77255, L517I); experiment: cell-based
Sequence (P28702 299-449): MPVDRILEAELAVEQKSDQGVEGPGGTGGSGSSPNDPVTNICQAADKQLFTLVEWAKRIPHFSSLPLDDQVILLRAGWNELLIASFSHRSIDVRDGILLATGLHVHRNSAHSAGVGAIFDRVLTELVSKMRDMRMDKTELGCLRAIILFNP
Sequence (O77255 entry or part of it L517I): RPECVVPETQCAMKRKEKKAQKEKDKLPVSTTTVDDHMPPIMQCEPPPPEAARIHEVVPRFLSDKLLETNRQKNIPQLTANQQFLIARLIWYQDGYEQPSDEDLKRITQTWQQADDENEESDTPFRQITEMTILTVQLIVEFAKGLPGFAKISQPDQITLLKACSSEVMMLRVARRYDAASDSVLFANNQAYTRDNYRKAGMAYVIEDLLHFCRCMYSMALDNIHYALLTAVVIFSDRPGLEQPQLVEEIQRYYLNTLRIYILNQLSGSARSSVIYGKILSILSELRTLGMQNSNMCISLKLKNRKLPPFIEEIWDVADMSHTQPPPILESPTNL
observation-type: EC50
Hey, just the number and the unit after it is fine.

IN: Requested read-out: EC50. Entry: Cc1cc(C)cc(C(=O)N(NC(=O)c2cccc(C(C)C)c2C)C(C)(C)C)c1
OUT: 2460 nM

IN: Requested field: EC50. Item: CCc1c(OC)cccc1C(=O)NN(C(=O)c1cc(C)cc(C)c1)C(C)(C)C
OUT: 770 nM

IN: Request the reported EC50 associated with CCc1cccc(C(=O)NN(C(=O)c2cc(C)cc(C)c2)C(C)(C)C)c1C
OUT: 940 nM

---

target: CfEcR-DEF mutant M125W (Choristoneura fumiferana, UniProt O77255, M408W); assay: GAL4-driven luciferase reporter assay in NIH3T3 cells; type: cell-based
Sequence (O77255 entry or part of it M408W, one chain of several): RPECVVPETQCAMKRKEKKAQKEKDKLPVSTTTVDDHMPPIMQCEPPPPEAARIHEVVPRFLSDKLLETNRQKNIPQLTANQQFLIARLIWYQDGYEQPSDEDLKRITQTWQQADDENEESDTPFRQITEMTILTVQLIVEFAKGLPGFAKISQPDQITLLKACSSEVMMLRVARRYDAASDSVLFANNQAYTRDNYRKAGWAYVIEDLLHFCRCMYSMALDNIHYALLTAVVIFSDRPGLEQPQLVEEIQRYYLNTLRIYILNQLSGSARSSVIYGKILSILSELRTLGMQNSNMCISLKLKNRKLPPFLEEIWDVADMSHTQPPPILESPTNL
observation-type: pEC50
# reply with the number alone; pEC50 is -log10 of concentration in mol/L

IN: Query the reported pEC50 for CfEcR-DEF mutant M125W (Choristoneura fumiferana, UniProt O77255, M408W); item: CCc1cccc(C(=O)NN(C(=O)c2cc(C)cc(C)c2)C(C)(C)C)c1C
OUT: 5.31

IN: Which pEC50 is reported with CfEcR-DEF mutant M125W (Choristoneura fumiferana, UniProt O77255, M408W) for this entry: CCc1c(OC)cccc1C(=O)NN(C(=O)c1cc(C)cc(C)c1)C(C)(C)C ?
OUT: 5.46

IN: Which pEC50 is reported with CfEcR-DEF mutant M125W (Choristoneura fumiferana, UniProt O77255, M408W) for this entry: Cc1cc(C)cc(C(=O)N(NC(=O)c2cccc(C(C)C)c2C)C(C)(C)C)c1 ?
OUT: 5.46

---

molecular target: CfEcR-DEF mutant F109L (Choristoneura fumiferana, UniProt O77255, F392L); test: cell-based; settings: mutant F109L; read-out: EC50
Sequence (P28702 299-449): as the sequence (P28702 299-449) above
Sequence (O77255 entry or part of it F392L): as the sequence (O77255 entry or part of it L517I) above, with F186L, I311L counted along it
Task for the reader: assign each of the following compounds its reported EC50.

IN: May I ask what EC50 has been recorded for CC(C)CC[C@@H](O)[C@](C)(O)[C@H]1CC[C@@]2(O)C3=CC(=O)[C@@H]4C[C@@H](O)[C@@H](O)C[C@]4(C)[C@H]3CC[C@]12C ?
OUT: > 33 µM

IN: Which EC50 value is on record for CC(C)(O)CC[C@@H](O)[C@](C)(O)[C@H]1CC[C@@]2(O)C3=CC(=O)[C@@H]4C[C@@H](O)[C@@H](O)C[C@]4(C)[C@H]3CC[C@]12C [20E, 20-hydroxyecdysone] ?
OUT: > 33 µM

---

target: CfEcR-DEF mutant M219A (Choristoneura fumiferana, UniProt O77255, M502A); experiment: GAL4-driven luciferase reporter assay in NIH3T3 cells; assay type: cell-based
Sequence (O77255 entry or part of it M502A, one chain of several): as the sequence (O77255 entry or part of it M408W, one chain of several) above, with W202M, M296A counted along it
Give measured EC50 for each item. Keep answers brief.

IN: Suppose we examine the molecule CCCCC(N(NC(=O)c1ccc(CC)cc1)C(=O)c1cc(C)cc(C)c1)C(C)(C)C (stereo not drawn) [RG-115840] ; what EC50 value has been reported?
OUT: 2.87 µM

IN: GET /values?readout=EC50&item= CCc1c(C(=O)NN(C(=O)c2cc(OC)c(C)c(OC)c2)C(C=C(C)C(C)(C)C)C(C)(C)C)ccc2c1OCCO2 (stereo not drawn) [RG-115898]
OUT: 1 µM

IN: GET /values?readout=EC50&item= CCc1c(OC)cccc1C(=O)NN(C(=O)c1cc(C)cc(C)c1)C(C)(C)C [RG-102240]
OUT: 2.9 µM

---

target: CfEcR-DEF mutant A110P (Choristoneura fumiferana, UniProt O77255, A393P); assay: cell-based; details: mutant A110P; read-out: EC50
Sequence (O77255 entry or part of it A393P, one chain of several): as the sequence (O77255 entry or part of it M408W, one chain of several) above, with A187P, W202M counted along it
Exercise: for every item that follows, state its recorded EC50.

IN: # lookup: EC50 of CC(C)(O)CC[C@@H](O)[C@](C)(O)[C@H]1CC[C@@]2(O)C3=CC(=O)[C@@H]4C[C@@H](O)[C@@H](O)C[C@]4(C)[C@H]3CC[C@]12C [20E, 20-hydroxyecdysone]
OUT: > 33 µM

IN: Give its EC50 value. Item: CC(C)CC[C@@H](O)[C@](C)(O)[C@H]1CC[C@@]2(O)C3=CC(=O)[C@@H]4C[C@@H](O)[C@@H](O)C[C@]4(C)[C@H]3CC[C@]12C
OUT: > 33 µM

---

biological target: CfEcR-DEF mutant I51M (Choristoneura fumiferana, UniProt O77255, I334M); experiment: GAL4-driven luciferase reporter assay in NIH3T3 cells
Sequence (P28702 299-449): as the sequence (P28702 299-449) above
Sequence (O77255 entry or part of it I334M): as the sequence (O77255 entry or part of it L517I) above, with I128M, I311L counted along it
observation-type: EC50 (µM)
Respond with the bare value in µM.

IN: Any idea what EC50 was measured for CCc1c(OC)cccc1C(=O)NN(C(=O)c1cc(C)cc(C)c1)C(C)(C)C ?
OUT: 3.94

IN: I'd like to know its EC50. The molecule in question is CCCCC(N(NC(=O)c1ccc(CC)cc1)C(=O)c1cc(C)cc(C)c1)C(C)(C)C (stereo not drawn)
OUT: 4.13

---

target: CfEcR-DEF mutant M54W (Choristoneura fumiferana, UniProt O77255, M337W); assay: cell-based
Sequence (O77255 entry or part of it M337W, one chain of several): as the sequence (O77255 entry or part of it M408W, one chain of several) above, with M131W, W202M counted along it
observation-type: pEC50
The scale used: pEC50 is minus the common logarithm of the concentration in molar units.

IN: So what's the measured pEC50 for this one? CCc1cccc(C(=O)NN(C(=O)c2cc(C)cc(C)c2)C(C)(C)C)c1C
OUT: 5.79

IN: Param item = Cc1cc(C)cc(C(=O)N(NC(=O)c2cccc(C(C)C)c2C)C(C)(C)C)c1 ; retrieve measured pEC50.
OUT: 5.91

IN: Entry CCc1c(OC)cccc1C(=O)NN(C(=O)c1cc(C)cc(C)c1)C(C)(C)C has what pEC50?
OUT: 5.93

---

biological target: CfEcR-DEF mutant T52V/A110P (Choristoneura fumiferana, UniProt O77255, A393P/T335V); assay: GAL4-driven luciferase reporter assay in NIH3T3 cells; format: cell-based; details: mutant T52V/A110P; read-out: EC50
Sequence (O77255 entry or part of it T335V/A393P): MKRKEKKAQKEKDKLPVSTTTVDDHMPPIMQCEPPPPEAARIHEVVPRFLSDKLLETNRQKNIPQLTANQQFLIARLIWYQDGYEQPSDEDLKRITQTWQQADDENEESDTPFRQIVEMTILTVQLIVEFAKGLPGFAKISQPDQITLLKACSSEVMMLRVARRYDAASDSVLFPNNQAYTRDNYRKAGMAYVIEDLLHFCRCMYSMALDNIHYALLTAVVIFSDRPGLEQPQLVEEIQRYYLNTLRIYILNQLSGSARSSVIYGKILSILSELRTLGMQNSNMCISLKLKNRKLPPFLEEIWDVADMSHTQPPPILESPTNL
Sequence (P28702 299-449, stated change not applied, further chain): as the sequence (P28702 299-449) above
Kindly supply the reported EC50 values for the records listed here.

IN: Short answer please: EC50, CfEcR-DEF mutant T52V/A110P (Choristoneura fumiferana, UniProt O77255, A393P/T335V), entry CC(C)(O)CC[C@@H](O)[C@](C)(O)[C@H]1CC[C@@]2(O)C3=CC(=O)[C@@H]4C[C@@H](O)[C@@H](O)C[C@]4(C)[C@H]3CC[C@]12C [20E, 20-hydroxyecdysone]
OUT: > 33 µM

IN: Param readout = EC50; param system = CfEcR-DEF mutant T52V/A110P (Choristoneura fumiferana, UniProt O77255, A393P/T335V); param query = CC(C)CC[C@@H](O)[C@](C)(O)[C@H]1CC[C@@]2(O)C3=CC(=O)[C@@H]4C[C@@H](O)[C@@H](O)C[C@]4(C)[C@H]3CC[C@]12C [PonA, ponasterone A] ; response: value
OUT: > 33 µM

---

What EC50 was measured for each of the following?
target: CfEcR-DEF mutant F48Y (Choristoneura fumiferana, UniProt O77255, F331Y); assay: cell-based; settings: mutant F48Y; read-out: EC50
Sequence (O77255 entry or part of it F331Y): as the sequence (O77255 entry or part of it L517I) above, with F125Y, I311L counted along it
Sequence (P28702 299-449, further chain): as the sequence (P28702 299-449) above

IN: Name the recorded EC50 for CC(C)(O)CC[C@@H](O)[C@](C)(O)[C@H]1CC[C@@]2(O)C3=CC(=O)[C@@H]4C[C@@H](O)[C@@H](O)C[C@]4(C)[C@H]3CC[C@]12C [20E, 20-hydroxyecdysone] .
OUT: > 33 µM

IN: Can you look up the measured EC50 of CC(C)CC[C@@H](O)[C@](C)(O)[C@H]1CC[C@@]2(O)C3=CC(=O)[C@@H]4C[C@@H](O)[C@@H](O)C[C@]4(C)[C@H]3CC[C@]12C for me?
OUT: ~10 µM

---

target: CfEcR-DEF mutant V107I/Y127E/A110P (Choristoneura fumiferana, UniProt O77255, A393P/V390I/Y410E); experiment: cell-based
Sequence (P28702 299-449, stated change not applied): as the sequence (P28702 299-449) above
Sequence (O77255 entry or part of it V390I/A393P/Y410E): as the sequence (O77255 entry or part of it T335V/A393P) above, with V117T, V172I, Y192E counted along it
I'd be grateful if you could share measured EC50 for these entries.
Report as a plain number; the unit nM is understood.

IN: Requested read-out: EC50. Entry: CCc1cccc(C(=O)NN(C(=O)c2cc(C)cc(C)c2)C(C)(C)C)c1C [RG-101691]
OUT: 340

IN: Recorded EC50 of CCc1c(OC)cccc1C(=O)NN(C(=O)c1cc(C)cc(C)c1)C(C)(C)C [RG-102240] , please.
OUT: 300

IN: Which EC50 is reported for this compound? Cc1cc(C)cc(C(=O)N(NC(=O)c2cccc(C(C)C)c2C)C(C)(C)C)c1 [RG-102362]
OUT: 100

---

biological target: CfEcR-DEF mutant T52G (Choristoneura fumiferana, UniProt O77255, T335G); assay: GAL4-driven luciferase reporter assay in NIH3T3 cells
Sequence (O77255 entry or part of it T335G): as the sequence (O77255 entry or part of it M408W, one chain of several) above, with T129G, W202M counted along it
Sequence (P28702 298-449, further chain): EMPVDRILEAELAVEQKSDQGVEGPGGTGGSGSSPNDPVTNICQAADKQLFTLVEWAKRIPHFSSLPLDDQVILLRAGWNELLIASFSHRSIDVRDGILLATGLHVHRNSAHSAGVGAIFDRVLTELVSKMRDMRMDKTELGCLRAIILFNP
Task for the reader: assign each of the following compounds its reported EC50.
// note: answer is a bare numeric in µM

IN: Given the compound CCCCC(N(NC(=O)c1ccc(CC)cc1)C(=O)c1cc(C)cc(C)c1)C(C)(C)C (stereo not drawn) , what is its reported EC50?
OUT: 3.61

IN: Any idea what EC50 was measured for CCc1c(OC)cccc1C(=O)NN(C(=O)c1cc(C)cc(C)c1)C(C)(C)C ?
OUT: 3.52
